Measured Ki, listed per entry for reference.
# experimental-system: PRMT5/MEP50 (Homo sapiens)
# Sequence (O14744 whole entry): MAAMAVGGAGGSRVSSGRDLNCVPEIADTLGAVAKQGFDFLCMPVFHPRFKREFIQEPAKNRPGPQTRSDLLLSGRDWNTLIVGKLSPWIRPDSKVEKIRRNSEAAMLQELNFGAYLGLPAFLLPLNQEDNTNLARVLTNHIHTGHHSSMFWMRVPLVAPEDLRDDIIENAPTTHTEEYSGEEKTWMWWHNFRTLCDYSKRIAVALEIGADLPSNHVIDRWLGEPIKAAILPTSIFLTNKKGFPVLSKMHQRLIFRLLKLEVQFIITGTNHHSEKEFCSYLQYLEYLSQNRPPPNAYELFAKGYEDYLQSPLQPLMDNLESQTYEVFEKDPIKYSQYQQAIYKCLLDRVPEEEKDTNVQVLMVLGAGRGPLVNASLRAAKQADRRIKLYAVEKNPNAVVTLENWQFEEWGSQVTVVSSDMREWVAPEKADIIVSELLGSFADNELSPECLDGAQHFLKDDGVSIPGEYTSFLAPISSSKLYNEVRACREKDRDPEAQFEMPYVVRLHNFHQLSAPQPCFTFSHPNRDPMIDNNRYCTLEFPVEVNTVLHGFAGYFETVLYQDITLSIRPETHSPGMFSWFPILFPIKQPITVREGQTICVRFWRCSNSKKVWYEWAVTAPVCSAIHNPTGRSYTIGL
# Sequence (Q9BQA1 whole entry partner): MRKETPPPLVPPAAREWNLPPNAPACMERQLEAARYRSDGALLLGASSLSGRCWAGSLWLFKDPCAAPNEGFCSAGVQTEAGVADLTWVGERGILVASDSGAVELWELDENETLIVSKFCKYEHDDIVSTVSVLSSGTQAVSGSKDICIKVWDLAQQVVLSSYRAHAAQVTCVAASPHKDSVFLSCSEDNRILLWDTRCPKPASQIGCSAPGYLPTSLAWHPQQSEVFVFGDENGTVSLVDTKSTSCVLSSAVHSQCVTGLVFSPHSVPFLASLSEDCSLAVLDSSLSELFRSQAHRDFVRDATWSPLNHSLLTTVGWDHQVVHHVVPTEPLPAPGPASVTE
# procedure-summary: MTase-Glo methyl transferase assay, Method A (Histone H4 peptide, 1 µM MTA, 24 h pre-incubation)
# Assay type: biochemical
# Design: made in house
# test-parameters: read-out: PRMT5 MTase Glo Ki (nM, Meth. A)
readout-kind: Ki (nM)

compound	experimental-system	unit-label	number
Cc1cc2cc(C(=O)N(Cc3ccc(C(=O)N(C)C)cn3)Cc3ncccc3F)ccc2nc1N	PRMT5/MEP50 (Homo sapiens)	nM	0.2
CO[C@@H](CN(Cc1ccc(C(F)(F)F)cn1)C(=O)c1cnc2nc(N)c(Br)cc2c1)C(F)(F)F (single isomer, unassigned)	PRMT5/MEP50 (Homo sapiens)	nM	0.15
Cc1cc2cc(C(=O)N(Cc3ccc(C(F)(F)F)cn3)Cc3ncccc3C)ccc2nc1N	PRMT5/MEP50 (Homo sapiens)	nM	0.66
Cc1cc2cc(C(=O)N(Cc3ccc(C(F)(F)F)nc3C)[C@H](C)c3ncccn3)ccc2nc1N	PRMT5/MEP50 (Homo sapiens)	nM	0.13
Cc1cc2cc(C(=O)N(Cc3ncccc3F)[C@H](C)c3ccc(C(F)(F)F)cn3)ccc2nc1N	PRMT5/MEP50 (Homo sapiens)	nM	0.22
Cc1cc2cc(C(=O)N(Cc3ccc(C(F)(F)F)cn3)[C@H]3CCCc4nccnc43)ccc2nc1N (single isomer, unassigned)	PRMT5/MEP50 (Homo sapiens)	nM	49.9

###

# System: HCT116 WT cells
# procedure-summary: HCT116 proliferation assay, WT cells (CellTiter-Glo, 6 days)
# Assay type: cell-based
# test-parameters: Homo sapiens, HCT-116, 144 h, read-out: Prolif_HCT116-WT IC50
pIC50: −log10 of the molar value.
Measured pIC50, listed per entry for reference.
readout-kind: pIC50

molecule	experimental-system	result
C[C@H](c1ncccn1)N(Cc1ccc(C(F)(F)F)nn1)C(=O)c1cnc2nc(N)c(Br)cc2c1 (single isomer, unassigned)	HCT116 WT cells	< 5.00
C[C@H](c1ncccn1)N(Cc1ccc(C(F)F)cn1)C(=O)c1cnc2nc(N)c(Cl)cc2c1	HCT116 WT cells	< 5.00
C[C@H](c1ncccn1)N(Cc1cc2c(cn1)OCCC2)C(=O)c1ccc2nc(N)c(Br)cc2c1	HCT116 WT cells	< 5.00
Cc1cc2cc(C(=O)N(Cc3ccn4ccnc4c3)Cc3ccc(C(F)(F)F)cn3)ccc2nc1N	HCT116 WT cells	< 6.00

###

Measured IC50, listed per entry for reference.
# Test system: HCT116 WT cells
# procedure-summary: HCT116 proliferation assay, WT cells (CellTiter-Glo, 6 days)
# Type: cell-based
# test-parameters: Homo sapiens, HCT-116, 144 h, read-out: Prolif_HCT116-WT IC50
readout-kind: IC50

compound	result
Cc1cc2cc(C(=O)N(Cc3ccc(C(F)(F)F)cn3)C3(c4ncccn4)CC3)ccc2nc1N [Example 430]	> 10 µM
C[C@H](c1ncccn1)N(Cc1ccc(Br)nn1)C(=O)c1cnc2nc(N)c(Br)cc2c1 [Example 350]	> 10 µM
COC[C@H](C1CC1)N(Cc1ccc(N2CCOCC2)nn1)C(=O)c1ccc2nc(N)c(Br)cc2c1 [Example 732]	> 10 µM

###

Measured pIC50, listed per entry for reference.
# Tested on: HCT116 WT cells
# procedure-summary: HCT116 proliferation assay, WT cells (CellTiter-Glo, 6 days)
# Assay type: cell-based
# test-parameters: Homo sapiens, HCT-116, 144 h, read-out: Prolif_HCT116-WT IC50
# Experimental: HCT116 MTAP null and WT cells were seeded in 96-well tissue culture plates in RPMI 1640 media + 10% fetal bovine serum. Plates were incubated overnight at 37° C. and 5% CO2. […] Effects on cell viability were measured with the CellTiter-Glo® Luminescent Cell Viability Assay (Promega) per manufacturer’s recommendation. Assay plates were read on an EnVision™ Multilabel Reader using the Ultra-Sensitive luminescence module.
pIC50: −log10 of the molar value.

compound	experimental-system	pIC50
Cc1cc2cc(C(=O)N(Cc3ccncn3)Cc3ccc(C(F)(F)F)cn3)ccc2nc1N	HCT116 WT cells	< 5.00
Cc1cc2cc(C(=O)N(Cc3ccc4[nH]c(=O)[nH]c4c3)Cc3ccc(C(F)(F)F)cn3)ccc2nc1N	HCT116 WT cells	< 5.00
Cc1cc2cc(C(=O)N(Cc3ccc(N4CCC(C(N)=O)CC4)cc3)Cc3ccnc4[nH]ccc34)ccc2nc1N	HCT116 WT cells	< 6.00
COC(=O)c1ccc(CN(Cc2ncccc2F)C(=O)c2ccc3nc(N)c(C)cc3c2)nc1	HCT116 WT cells	< 5.00
COc1ccc(CN(C(=O)c2ccc3nc(N)c(Br)cc3c2)C(C)c2ncn(C)n2)nn1 (stereo in doubt)	HCT116 WT cells	< 5.00
Cc1cc2cc(C(=O)N(Cc3ccc(C(F)(F)F)cn3)[C@H](C)c3cccc(C#N)n3)ccc2nc1N (single isomer, unassigned)	HCT116 WT cells	< 5.00
COc1ccc(CN(C(=O)c2ccc3nc(N)c(C)cc3c2)[C@@H]2CCC[C@H]2O)nn1	HCT116 WT cells	< 5.00
Cc1cc2cc(C(=O)N(Cc3ccc(C(F)(F)F)cn3)CC3CCOCC3)ccc2nc1N	HCT116 WT cells	< 6.00
N#Cc1ccc(CN(C(=O)c2ccc3nc(N)c(Br)cc3c2)C2CCCC2C#N)nc1 (centres unmarked)	HCT116 WT cells	< 6.00
Cc1cc2cc(C(=O)N(Cc3ccc(C(F)(F)F)cn3)C3COc4c3ccc(C)c4C)ccc2nc1N (centres unmarked)	HCT116 WT cells	< 6.00
C#Cc1cc2cc(C(=O)N(Cc3ccc(C(F)(F)F)cn3)[C@H](C)c3ncccc3F)cnc2nc1N	HCT116 WT cells	< 5.00
C[C@H](c1ncccc1F)N(Cc1ccc(C#N)cn1)C(=O)c1ccc2nc(N)c(Cl)cc2c1	HCT116 WT cells	< 5.00
C[C@H](c1ncccn1)N(Cc1ccc(C(F)(F)F)cn1)C(=O)c1cc2cc(Cl)c(N)nc2cn1	HCT116 WT cells	< 5.00
Cc1cc2cc(C(=O)N(Cc3cnc4ccccc4c3)[C@H](C)c3ncccn3)ccc2nc1N (single isomer, unassigned)	HCT116 WT cells	< 5.00
